Hello, the source for this data is paper PMC9944232, in case you need it.

- test system: AIFΔ101 K510A/K518A (Homo sapiens, UniProt O95831 102-613, K510A;K518A)
- Sequence (O95831 102-613 K510A/K518A): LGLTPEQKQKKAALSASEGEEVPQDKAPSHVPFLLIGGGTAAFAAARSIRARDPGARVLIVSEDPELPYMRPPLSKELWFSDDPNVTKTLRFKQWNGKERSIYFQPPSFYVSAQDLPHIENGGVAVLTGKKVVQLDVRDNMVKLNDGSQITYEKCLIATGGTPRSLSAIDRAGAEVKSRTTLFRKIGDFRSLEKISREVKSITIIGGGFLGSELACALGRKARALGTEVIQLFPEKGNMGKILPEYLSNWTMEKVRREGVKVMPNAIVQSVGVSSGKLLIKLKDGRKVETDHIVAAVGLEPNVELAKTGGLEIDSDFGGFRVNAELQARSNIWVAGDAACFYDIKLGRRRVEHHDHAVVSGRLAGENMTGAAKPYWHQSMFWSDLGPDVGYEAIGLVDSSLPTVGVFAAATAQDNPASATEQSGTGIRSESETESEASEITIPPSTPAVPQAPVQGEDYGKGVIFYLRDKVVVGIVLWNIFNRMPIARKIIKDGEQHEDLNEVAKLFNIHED
- protocol text: ITC; binary; ITC: 50 mM potassium phosphate pH 7.4, 15 °C (25 °C with CypA); EMSA: same buffer, 25 °C, 30 min, 2% agarose; AFM on mica at room temperature
- measurement context: protein: recombinant; tags: N-terminal His6; blunt
attribute measured: Kd (nM)

* 15-bp dsDNA (dsDNA) DNA 1: GGTTAGTTATGCGCG DNA 2: CGCGCATAACTAACC | 500
